# Tested on: RXRa homodimer (NR concentration 180 nM)
# ASSAY_NAME: PBM binding z-score (relative to random genomic background probes); higher = stronger binding; sequences stand for … in GC…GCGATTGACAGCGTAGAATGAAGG
Each entry falls into one class according to its PBM binding z-score; the ranges are range A = under 0.9, range B = from 0.9 up to 3, range C = 3 and over

>>> class("CGAGCTAGGTCAAGGACAGTGAATCTCCGCACGC")
"range B"

Category lookup for the sequence "ACTAGTTGGTCCGCTGAGGTCACACACAATTCGG"
range C

Category lookup for the sequence "TGTCAAAGTTTAAAGGTAACGTAAGTATCCACAC"
range B

Category lookup for the sequence "TCTGCTAGGTCAGTTGCTCAGCTAACGAGCTGCC"
range A

Category lookup for the sequence "TCTCGGAGGACACCAAGGTCAGAGCTTTCCAGAG"
range B

Category lookup for the sequence "CGTCCAAGATCAATGCTAGGTCAGTGAAAGCATT"
range A

Category lookup for the sequence "GCTAGTTGGTCAGTAAAAGGTCACAGACCGGTCG"
range C

Category lookup for the sequence "TCTAGCAGGCCACAGGGTCACTCAAGAGGTACGG"
range C

Category lookup for the sequence "CTCGAAAGGTCGGTTGATGTGAGTATACGGATAA"
range B

Category lookup for the sequence "GCATATAGGTAATATAAGGTGAAAGTCCGATTGT"
range B

Category lookup for the sequence "CGTCAAAGTTCAAGGTAGCGTAACAGAAAGCAGC"
range C

Category lookup for the sequence "GGAACGAGGGGAAAGTTGATAGCATCTGTCGACG"
range A

Category lookup for the sequence "CTCGAAAGGTCGGTTGAGGTGATTATACGGATAA"
range B

Category lookup for the sequence "GCTGTTAGGTCAGGTTGGTCAGCTAACGGGTACG"
range B

Category lookup for the sequence "CCTACTGGGACAAGGTCATTGATCAGTCAAAGCA"
range C

Category lookup for the sequence "TCTGCTAGGTCAGCTGGTCAGCTAACGAGCTGCC"
range B

Category lookup for the sequence "CGTCCAAGGTCAATGCTAGGTCGGTGAAAGCATT"
range C

Category lookup for the sequence "TCATATCGGTAAAAGGTGAAAGTCGGTGTGGTAA"
range B

Category lookup for the sequence "ATCTCTAGGTAAGGTTCAGTGAAAGATCGATAGA"
range A

Category lookup for the sequence "CCTTACGTGTCACTCCAGGTTATAGCATCGGAGT"
range A

Category lookup for the sequence "TCAAATAGGTAAATGCTAGGTGAAAGTCCGATCT"
range B

Category lookup for the sequence "GCGACTGGAGCAAAGCAGGTTACCATAAGGTTGG"
range A

Category lookup for the sequence "AGAACGAGGGCAACGAGTTGATAGCACGGGTGGC"
range B

Category lookup for the sequence "CCTACTGGGCCAGGAAAGGTCATTGATTCAGTGA"
range C

src = the supplement of paper PMC6555819
